Biological target: human recombinant MAOB enzyme (hMAOB) (Homo sapiens, UniProt P27338)
Sequence (P27338 1-520): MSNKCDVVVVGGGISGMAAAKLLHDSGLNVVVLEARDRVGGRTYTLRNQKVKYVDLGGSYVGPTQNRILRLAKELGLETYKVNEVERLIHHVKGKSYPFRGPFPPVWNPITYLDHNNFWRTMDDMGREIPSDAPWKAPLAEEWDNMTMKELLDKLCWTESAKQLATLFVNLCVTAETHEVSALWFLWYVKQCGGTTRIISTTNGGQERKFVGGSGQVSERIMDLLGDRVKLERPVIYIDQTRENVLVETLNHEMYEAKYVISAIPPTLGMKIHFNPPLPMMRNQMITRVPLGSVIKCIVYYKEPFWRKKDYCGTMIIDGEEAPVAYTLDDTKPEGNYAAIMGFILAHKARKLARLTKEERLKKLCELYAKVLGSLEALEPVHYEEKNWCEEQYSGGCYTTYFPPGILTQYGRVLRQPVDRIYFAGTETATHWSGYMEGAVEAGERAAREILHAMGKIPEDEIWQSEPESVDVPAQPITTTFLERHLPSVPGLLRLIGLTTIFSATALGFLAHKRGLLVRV
Experiment: Human recombinant MAOB enzyme activity (fluorometric, Amplex Red);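 further: tyramine as substrate, H2O2 formation detected by horseradish peroxidase coupled Amplex Red fluorescence read at 570 and 690 nm, compounds incubated with enzyme 30 min at 37 °C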
Assay type: biochemical
Settings: 1 µM, compared to control (pure hMAOB)
Assay readout: inhibition at 1 µM (%)
The response must be a number in % with no trailing unit.

inhibition at 1 µM for CCOC(=O)c1cc(-c2ccc(Br)cc2)n(CC(=O)NN=Cc2ccc(N(C)C)cc2)c1C [7a] ?
20

inhibition at 1 µM for CCOC(=O)c1cc(-c2ccc(Br)cc2)n(CCC(=O)NN=Cc2ccc(N(C)C)cc2)c1C [8a] ?
20

inhibition at 1 µM for CCOC(=O)c1cc(-c2ccc(Br)cc2)n(CC(=O)NN=Cc2ccc(OC)cc2OC)c1C [7e] ?
35

inhibition at 1 µM for CCOC(=O)c1cc(-c2ccc(Br)cc2)n(CCC(=O)NN=Cc2cc(OC)c(O)c(OC)c2)c1C [8d] ?
45

inhibition at 1 µM for CCOC(=O)c1cc(-c2ccc(Br)cc2)n(CCC(=O)NN=Cc2ccc([N+](=O)[O-])cc2)c1C [8c] ?
20

inhibition at 1 µM for CCOC(=O)c1cc(-c2ccc(Br)cc2)n(CC(=O)NN=Cc2ccc(Cl)cc2)c1C [7b] ?
40

inhibition at 1 µM for CCOC(=O)c1cc(-c2ccc(Br)cc2)n(CC(=O)NN=Cc2ccc([N+](=O)[O-])cc2)c1C [7c] ?
25

inhibition at 1 µM for CCOC(=O)c1cc(-c2ccc(Br)cc2)n(CCC(=O)NN=Cc2ccc(Cl)cc2)c1C [8b] ?
25

inhibition at 1 µM for CCOC(=O)c1cc(-c2ccc(Br)cc2)n(CC(=O)NN=Cc2cc(OC)c(O)c(OC)c2)c1C [7d] ?
45

inhibition at 1 µM for CCOC(=O)c1cc(-c2ccc(Br)cc2)n(CCC(=O)NN=Cc2ccc(OC)cc2OC)c1C [8e] ?
20

----------
System: isolated rat brain microsomes
Assay: Fe2+/AA-induced non-enzyme lipid peroxidation model: MDA production
Assay type: cell-based
Conditions: 50 µM in combination with Fe2+/AA, compared to the toxic agent
Method: The brain was homogenized in 9 volume parts of 0.1 M Tris buffer containing: 0.1 mM dithiothreitol, 0.1 mM phenylmethylsulfonyl fluoride, 0.2 mM EDTA, 1.15% KCl, and 20% (v/v) glycerol (pH 7.4). The resulting homogenate was centrifuged twice at 17,000× g for 30 min. The supernatants from the two centrifugations were pooled and centrifuged twice at 100,000× g for 1 h. The pellet was frozen in 0.1 M Tris buffer. […]
Assign decrease of MDA production to each entry below.
The response must be a number in % with no trailing unit.

decrease of MDA production for CCOC(=O)c1cc(-c2ccc(Br)cc2)n(CCC(=O)NN=Cc2ccc(OC)cc2OC)c1C [8e] ?
25

decrease of MDA production for CCOC(=O)c1cc(-c2ccc(Br)cc2)n(CCC(=O)NN=Cc2ccc([N+](=O)[O-])cc2)c1C [8c] ?
27

decrease of MDA production for CCOC(=O)c1cc(-c2ccc(Br)cc2)n(CCC(=O)NN=Cc2cc(OC)c(O)c(OC)c2)c1C [8d] ?
54

decrease of MDA production for CCOC(=O)c1cc(-c2ccc(Br)cc2)n(CC(=O)NN=Cc2ccc(OC)cc2OC)c1C [7e] ?
31

decrease of MDA production for CCOC(=O)c1cc(-c2ccc(Br)cc2)n(CC(=O)NN=Cc2ccc([N+](=O)[O-])cc2)c1C [7c] ?
35

decrease of MDA production for CCOC(=O)c1cc(-c2ccc(Br)cc2)n(CC(=O)NN=Cc2ccc(Cl)cc2)c1C [7b] ?
46

decrease of MDA production for CCOC(=O)c1cc(-c2ccc(Br)cc2)n(CC(=O)NN=Cc2cc(OC)c(O)c(OC)c2)c1C [7d] ?
52

decrease of MDA production for CCOC(=O)c1cc(-c2ccc(Br)cc2)n(CCC(=O)NN=Cc2ccc(Cl)cc2)c1C [8b] ?
31

decrease of MDA production for CCOC(=O)c1cc(-c2ccc(Br)cc2)n(CCC(=O)NN=Cc2ccc(N(C)C)cc2)c1C [8a] ?
35

decrease of MDA production for CCOC(=O)c1cc(-c2ccc(Br)cc2)n(CC(=O)NN=Cc2ccc(N(C)C)cc2)c1C [7a] ?
34

----------
Test system: isolated rat brain mitochondria
Test: Neurotoxicity: GSH level in brain mitochondria, substances applied alone
Type: cell-based
Conditions: 50 µM applied alone, compared to control
Assay readout: decrease of GSH level (%)
The response must be a number in % with no trailing unit.

decrease of GSH level for CCOC(=O)c1cc(-c2ccc(Br)cc2)n(CCC(=O)NN=Cc2ccc(N(C)C)cc2)c1C ?
20

decrease of GSH level for CCOC(=O)c1cc(-c2ccc(Br)cc2)n(CC(=O)NN=Cc2ccc(N(C)C)cc2)c1C ?
20

decrease of GSH level for CCOC(=O)c1cc(-c2ccc(Br)cc2)n(CCC(=O)NN=Cc2ccc(OC)cc2OC)c1C ?
25

decrease of GSH level for CCOC(=O)c1cc(-c2ccc(Br)cc2)n(CCC(=O)NN=Cc2cc(OC)c(O)c(OC)c2)c1C ?
15

decrease of GSH level for CCOC(=O)c1cc(-c2ccc(Br)cc2)n(CC(=O)NN=Cc2ccc(Cl)cc2)c1C ?
15

decrease of GSH level for CCOC(=O)c1cc(-c2ccc(Br)cc2)n(CC(=O)NN=Cc2cc(OC)c(O)c(OC)c2)c1C ?
15

decrease of GSH level for CCOC(=O)c1cc(-c2ccc(Br)cc2)n(CCC(=O)NN=Cc2ccc(Cl)cc2)c1C ?
20

decrease of GSH level for CCOC(=O)c1cc(-c2ccc(Br)cc2)n(CC(=O)NN=Cc2ccc([N+](=O)[O-])cc2)c1C ?
25

decrease of GSH level for CCOC(=O)c1cc(-c2ccc(Br)cc2)n(CCC(=O)NN=Cc2ccc([N+](=O)[O-])cc2)c1C ?
25

decrease of GSH level for CCOC(=O)c1cc(-c2ccc(Br)cc2)n(CC(=O)NN=Cc2ccc(OC)cc2OC)c1C ?
25

Every entry's value here was drawn from paper PMC11433870.
